Assay: physchem
Conditions: octan-1-ol/water, pH 7.4, LogD7.4
Each record here notes measured logD.
readout_kind: logD

[[record]]
structure = "Cc1c(Sc2ccc(Cl)cc2)c2c(S(C)(=O)=O)cccc2n1CC(=O)O"
readout_kind = "logD"
reported_result = 0.58

[[record]]
structure = "CCOc1ccc2nc(NC(=O)CC)sc2c1"
readout_kind = "logD"
reported_result = 3.4

[[record]]
structure = "COc1ccccc1CNc1cc(C)ccn1"
readout_kind = "logD"
reported_result = 3.28

[[record]]
structure = "Cc1cc(Cl)ccc1OC1CCN(C[C@H](O)CNC(=O)c2c[nH]nc2C(F)(F)F)CC1"
readout_kind = "logD"
reported_result = 3.02

[[record]]
structure = "O=C([C@@H](O)CO)N1CC=C(c2ccc(N3C[C@H](COc4ccon4)OC3=O)cc2F)CC1"
readout_kind = "logD"
reported_result = 1.09

[[record]]
structure = "CC(=N)NCc1ccccc1"
readout_kind = "logD"
reported_result = -0.28

